Just for reference, paper PMC7585439 is where these values come from.

- TESTED_SYSTEM: T1, UvrD-CTD (Escherichia coli, UniProt P03018 645-720)
- T1 sequence: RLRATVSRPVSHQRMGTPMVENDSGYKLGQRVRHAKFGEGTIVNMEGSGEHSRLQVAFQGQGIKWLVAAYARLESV
- ASSAY_EXPLANATION: BLI; NMR titrations at 298 K: UvrD-CTD in UvrD NMR buffer (20 mM K-phosphate, 50 mM KCl, 5 mM DTT, pH 6.5, 10% D2O), Mfd-RID in PBS pH 7.4 with 10% D2O; BLI buffer not given in the material
- TEST_PARAMETERS: protein: recombinant; tags: N-terminal His6, uncleavable; label: biotin; self-complementary 28 bp duplex of 2 identical strands, 3' overhangs 7 nt; snap cooled after dissolving
PARAMETER: pKd
Scale: negative log10 of molar concentration, which is what pKd denotes.

So for biotinylated 35mer dsDNA (dsDNA, biotin (position not given)) DNA 1: CGAGCACTGCACTCGAGTGCAGTGCTCGTTGTTAT DNA 2: CGAGCACTGCACTCGAGTGCAGTGCTCGTTGTTAT , the logged pKd turned out to be 5.72
